Numbers sourced from the supplement of paper PMC13380429.

Tested on: Calu-3
Test: cell viability relative to DMSO; higher = less toxic
Conditions: 72 h; 1 nM
Overview of reported cell viability across a group of compounds:
Value expressed in %; do not type the unit.

Field: example entries. Status: answers known.
[
  {
    "compound": "O=C(Cn1c(=O)sc2ccc(Cl)cc21)N1CCN(CCO)CC1 [tiaramide]",
    "system name": "Calu-3",
    "cell viability (%)": 92.2
  },
  {
    "compound": "COc1cc2c(cc1OC)CN(CCc1ccc(NC(=O)c3cccc4c(=O)c5cccc(OC)c5[nH]c34)cc1)CC2 [elacridar]",
    "system name": "Calu-3",
    "cell viability (%)": 98.9
  },
  {
    "compound": "CCOC(=O)[C@@H](N)CCC(=O)N[C@@H](CSCc1ccccc1)C(=O)N[C@@H](C(=O)OCC)c1ccccc1 [ezatiostat]",
    "system name": "Calu-3",
    "cell viability (%)": 97.2
  },
  {
    "compound": "COc1c(-c2ccc3cc(NS(C)(=O)=O)ccc3c2)cc(-n2ccc(=O)[nH]c2=O)cc1C(C)(C)C [dasabuvir]",
    "system name": "Calu-3",
    "cell viability (%)": 94
  },
  {
    "compound": "O=C(Cn1ccnc1[N+](=O)[O-])NCCO [etanidazole]",
    "system name": "Calu-3",
    "cell viability (%)": 98.8
  }
]

Now for the compound whose cell viability we want.
Provide value of cell viability for this record tested with Calu-3: CCCc1ncc(C[n+]2ccccc2C)c(N)n1 [amprolium]
104
